Test system: MDCK2 cells (kidney epithelial)
experimentalDetails: MDCK2 cell proliferation assay (MTT, 72 h)
Format: cell-based, dog
experimentalParameters: MDCK2, dog kidney epithelial; read-out: IC50 for proliferation arrest
measuredEndpoint: pIC50
The read-out pIC50 is expressed as -log10 of concentration in moles per litre.

Q: Read the entry CC(C)(SCC(=O)Nc1ccc([As](O)O)cc1)[C@@H](N)C(=O)O [(S)-Penicillamine-arsenoxide] and write its reported pIC50.
Result: 5.62
